Reference source: ChEMBL document CHEMBL5352447

# Test system: HCC 2998
# protocol_text: Antiproliferative activity against human HCC 2998 cells assessed as cell growth inhibition incubated for 72 hrs by MTT assay
# Format: functional
// values below are reported GI50
Number in nM, nothing else.

Check out these entries, answers already filled in.
COc1ccc(Cn2cc3c(c2-c2cc(OC)c(OC)c(OC)c2)CCc2c(CN4CCCC4)noc2-3)cc1
1840
CCOC(=O)c1noc2c1CCc1c-2cn(Cc2ccc(OC)cc2)c1-c1cc(OC)c(OC)c(OC)c1
5170
COc1ccc(Cn2cc3c(c2-c2cc(OC)c(OC)c(OC)c2)CCc2c(CN4CCOCC4)noc2-3)cc1
2170

Now look at this entry.
Q) // query GI50 value for entry `COc1ccc(Cn2cc3c(c2-c2cc(OC)c(OC)c(OC)c2)CCc2c(CO)noc2-3)cc1`
A) 1340

* * *

Recorded GI50 values for a group of compounds are listed next.
# System: MOLT-4
# protocol_text: Antiproliferative activity against human MOLT-4 cells assessed as cell growth inhibition incubated for 72 hrs by MTT assay
# Type: functional
Answer with a number only, understood to be in nM.

// worked examples, GI50 included
COc1ccc(Cn2cc3c(c2-c2cc(OC)c(OC)c(OC)c2)CCc2c(CN4CCCC4)noc2-3)cc1
1470
COc1ccc(Cn2cc3c(c2-c2cc(OC)c(OC)c(OC)c2)CCc2c(CN4CCOCC4)noc2-3)cc1
3060
COc1ccc(Cn2cc3c(c2-c2cc(OC)c(OC)c(OC)c2)CCc2c(CO)noc2-3)cc1
440

For the next question, use this compound.
Q) Fill in the blank: the reported GI50 of `CCOC(=O)c1noc2c1CCc1c-2cn(Cc2ccc(OC)cc2)c1-c1cc(OC)c(OC)c(OC)c1` is ____.
A) 2700

* * *

# System: COLO 205
# protocol_text: Antiproliferative activity against human COLO 205 cells assessed as cell growth inhibition incubated for 72 hrs by MTT assay
# Format: functional
measurement_label: GI50 (µM)
Give the quantity in µM, number only.

Reference set, count: 3
CCOC(=O)c1noc2c1CCc1c-2cn(Cc2ccc(OC)cc2)c1-c1cc(OC)c(OC)c(OC)c1
1.77
COc1ccc(Cn2cc3c(c2-c2cc(OC)c(OC)c(OC)c2)CCc2c(CN4CCCC4)noc2-3)cc1
0.94
COc1ccc(Cn2cc3c(c2-c2cc(OC)c(OC)c(OC)c2)CCc2c(CO)noc2-3)cc1
0.3

Shift focus to the following entry.
Q) State the recorded GI50 for this entry: `COc1ccc(Cn2cc3c(c2-c2cc(OC)c(OC)c(OC)c2)CCc2c(CN4CCOCC4)noc2-3)cc1`
A) 0.59

* * *

Below: a set of entries, each annotated with reported GI50.
# System: RPMI-8226
# protocol_text: Antiproliferative activity against human RPMI-8226 cells assessed as cell growth inhibition incubated for 72 hrs by MTT assay
# Assay type: functional
The figure you give is taken to be in nM; do not add the unit.

COc1ccc(Cn2cc3c(c2-c2cc(OC)c(OC)c(OC)c2)CCc2c(CN4CCOCC4)noc2-3)cc1
770

Q) Query the reported GI50 for RPMI-8226; item: `CCOC(=O)c1noc2c1CCc1c-2cn(Cc2ccc(OC)cc2)c1-c1cc(OC)c(OC)c(OC)c1`
A) 2850

Q) Please give the result for `COc1ccc(Cn2cc3c(c2-c2cc(OC)c(OC)c(OC)c2)CCc2c(CO)noc2-3)cc1` too.
A) 420

Q) Next: `COc1ccc(Cn2cc3c(c2-c2cc(OC)c(OC)c(OC)c2)CCc2c(CN4CCCC4)noc2-3)cc1`
A) 1270

* * *

# System: NCI-H23
# protocol_text: Antiproliferative activity against human NCI-H23 cells assessed as cell growth inhibition incubated for 72 hrs by MTT assay
# Format: functional
measurement_label: GI50 (nM)
Enter your answer as a number in nM; do not include the unit.

Use the examples below as a reference point.
COc1ccc(Cn2cc3c(c2-c2cc(OC)c(OC)c(OC)c2)CCc2c(CO)noc2-3)cc1
520
CCOC(=O)c1noc2c1CCc1c-2cn(Cc2ccc(OC)cc2)c1-c1cc(OC)c(OC)c(OC)c1
3040
COc1ccc(Cn2cc3c(c2-c2cc(OC)c(OC)c(OC)c2)CCc2c(CN4CCOCC4)noc2-3)cc1
2170

Field: next molecule
Q) Notebook entry, NCI-H23 assay: GI50 of `COc1ccc(Cn2cc3c(c2-c2cc(OC)c(OC)c(OC)c2)CCc2c(CN4CCCC4)noc2-3)cc1` = ?
A) 2800
